Let's look at some compounds and their measured log10 of IC50.
- TESTED_ON: NK-1 receptor (Homo sapiens)
- Construct: an aliquot of IM9 cells; endogenous in cells
- Sequence (P25103 whole entry): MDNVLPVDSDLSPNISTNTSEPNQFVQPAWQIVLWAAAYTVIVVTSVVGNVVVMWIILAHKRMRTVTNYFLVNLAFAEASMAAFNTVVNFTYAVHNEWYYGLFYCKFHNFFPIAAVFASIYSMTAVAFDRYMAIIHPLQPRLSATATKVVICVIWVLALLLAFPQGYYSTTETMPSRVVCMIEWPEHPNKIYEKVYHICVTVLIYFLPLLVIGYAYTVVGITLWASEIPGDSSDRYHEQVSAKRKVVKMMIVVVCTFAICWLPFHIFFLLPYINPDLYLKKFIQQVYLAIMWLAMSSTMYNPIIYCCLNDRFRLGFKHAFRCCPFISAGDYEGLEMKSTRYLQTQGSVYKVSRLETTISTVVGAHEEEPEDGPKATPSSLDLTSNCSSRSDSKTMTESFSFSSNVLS
- PROTOCOL_DESCRIPTION: NK-1 Receptor Binding Assay (competition with labeled substance P on IM9 cells)
- TEST_CONTEXT: concentration which inhibits fifty percent of the binding of substance P, 20 pM labeled substance P, 45 minutes at 4°C
Transform log10 | Measure IC50 | Unit nM

Study these solved cases before continuing.
COc1cc(-c2nc3ccc(OCCN4CCCCC4)cc3n2Cc2ccccc2)cc(OC)c1OC: 1.78
COc1ccccc1-c1nc2ccccc2n1-c1ccccc1: 3.94
COc1cc(-c2nc3ccc(OC(C)CN(C)C)cc3n2Cc2ccccc2)cc(OC)c1OC (stereo not shown): 2.18
FC(F)(F)c1ccc(-c2nc3ccccc3n2-c2ccccc2)cc1: 3.83
O=[N+]([O-])c1ccc(-c2nc3ccccc3n2-c2ccccc2)cc1: 3.96
COc1cc(-c2nc3ccc(OCCN(C(C)C)C(C)C)cc3n2Cc2ccccc2)cc(OC)c1OC: 1.60
Clc1cccc(-c2nc3ccccc3n2-c2ccccc2)c1: 3.85
COc1cc(-c2nc3ccc(OCCCN4CCCCC4)cc3n2Cc2ccccc2)cc(OC)c1OC: 1.93
COc1cc(-c2nc3ccc(OCCN4CCN(C)CC4)cc3n2Cc2ccccc2)cc(OC)c1OC: 1.99
N#Cc1ccc(-c2nc3ccccc3n2-c2ccccc2)cc1: 3.54

// query log10 of IC50 value for entry `COc1ccc2nc(-c3cc(OC)c(OC)c(OC)c3)n(Cc3ccccc3)c2c1`
2.63

Dear colleague, I am looking for the recorded log10 of IC50 of the following compound: `COc1cc(-c2nc3ccc(OCCCCl)cc3n2Cc2ccccc2)cc(OC)c1OC`
2.91

Suppose we examine the compound `Cc1cccc(-c2nc3ccccc3n2Cc2cccc(Cl)c2)c1` ; what log10 of IC50 value has been reported?
3.42

# input compound: `CCCc1nc2ccccc2n1-c1ccccc1` ; wanted: its log10 of IC50
4.00

Fill in the blank: the reported log10 of IC50 of `Cc1cccc(-c2nc3ccccc3n2-c2ccccc2)c1` is ____.
3.04

Looking for the measured log10 of IC50 of `COc1cc(-c2nc3ccc(OCCN(C)C)cc3n2Cc2ccccc2)cc(OC)c1OC` , can you help?
1.99

----------
- TESTED_ON: human NK-2 receptor (Homo sapiens, UniProt P21452)
- Construct: expressed in transfected cells; host or cells: CHO-hNK-2R cells (CHO-derived), membrane preparation
- Sequence (P21452 1-398): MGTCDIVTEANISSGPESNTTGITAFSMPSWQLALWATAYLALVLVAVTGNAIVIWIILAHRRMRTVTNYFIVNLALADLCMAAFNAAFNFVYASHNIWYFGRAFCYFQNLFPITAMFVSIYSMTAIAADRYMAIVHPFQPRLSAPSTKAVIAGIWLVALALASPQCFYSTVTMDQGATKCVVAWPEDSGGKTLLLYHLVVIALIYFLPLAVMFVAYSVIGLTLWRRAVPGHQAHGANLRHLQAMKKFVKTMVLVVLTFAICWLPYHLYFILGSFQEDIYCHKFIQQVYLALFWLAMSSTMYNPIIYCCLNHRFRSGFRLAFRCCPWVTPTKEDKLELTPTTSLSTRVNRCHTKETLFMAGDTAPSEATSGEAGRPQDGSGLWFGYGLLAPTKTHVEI
- PROTOCOL_DESCRIPTION: NK-2 Receptor Binding Assay (CHO-hNK-2R membranes, iodohistidyl-neurokinin A)
- TEST_CONTEXT: inhibition of neurokinin A binding at ten micromolar, read-out: Percent Inhibition @ 10 μM
If the reported inhibition at 10 µM equals or exceeds 40%, assign 1 (yes). If not, assign 0 (no).

Reference set (2 entries):
Cc1cccc(-c2nc3ccccc3n2Cc2ccccc2Br)c1 [Example 60]: 1 (yes)
Cc1cccc(-c2nc3ccc(O)cc3n2Cc2ccccc2)c1 [Example 84]: 0 (no)

# bool: inhibition at 10 µM of COc1cc(-c2nc3ccc(OCCCN4CCCCC4)cc3n2Cc2ccccc2)cc(OC)c1OC [Example 74] >= 40%
1 (yes)

Quick check: does Cc1cccc(-c2nc3ccc(OCCN(Cc4ccccc4)Cc4ccccc4)cc3n2Cc2ccccc2)c1 [Example 89] have inhibition at 10 µM greater than or equal to 40%?
0 (no)

Hi team, for Cc1cccc(-c2nc3ccc(OCCCN4CCCCC4)cc3n2Cc2ccccc2)c1 [Example 95] , is the recorded inhibition at 10 µM at or above 40%?
1 (yes)

Decide: is the reported value of inhibition at 10 µM for COc1cc(-c2nc3ccc(OCCN4CCOCC4)cc3n2Cc2ccccc2)cc(OC)c1OC [Example 70] equal to or greater than 40%?
1 (yes)

For this compound, is measured inhibition at 10 µM 40% or higher? COc1cccc(Cn2c(-c3cc(OC)c(OC)c(OC)c3)nc3ccccc32)c1 [Example 45]
0 (no)

Quick check: does COc1cc(-c2nc3ccccc3n2Cc2ccc(Cl)c(Cl)c2)cc(OC)c1OC [Example 53] have inhibition at 10 µM greater than or equal to 40%?
0 (no)

Is inhibition at 10 µM for Cc1cccc(-c2nc3ccc(OCCCN(C)C)cc3n2Cc2ccccc2)c1 [Example 94] at or above 40%?
0 (no)
